Please find below Ki measurements for Aminopeptidase N (Sus scrofa), combined from several publications.
Define the label as true when Ki is strictly less than 30 µM and as false in all remaining cases.

Example entries and their recorded answers appear below.
>>> cat("CC[C@@H](C)[C@H](NC(=O)[C@@H](S)[C@H](N)CCS(=O)(=O)O)C(=O)N[C@@H](CC(=O)O)C(=O)O")
"false"
>>> cat("NCCCC[C@@H](N)CS")
"true"
>>> cat("NC(CCS(N)(=O)=O)C(S)C(=O)N[C@@H](Cc1ccc(O)cc1)C(=O)N[C@@H](CC(=O)O)C(=O)O (stereo partly specified)")
"true"

query: I wonder whether CC[C@@H](C)[C@H](NC(=O)[C@@H](S)[C@H](N)CCS(=O)(=O)O)C(=O)N[C@H](CC(=O)O)C(=O)O has Ki below 30 µM. Can you tell?
result: false

query: What do you have for CC[C@@H](C)[C@H](NC(=O)[C@H](S)[C@H](N)CCS(=O)(=O)O)C(=O)N[C@@H](CC(=O)O)C(N)=O ?
result: false

query: What do you have for NC(CCc1ccccc1)P(=O)(O)CC(Cc1ccc(O)cc1)C(=O)O (stereo unspecified) ?
result: true

query: What do you have for N[C@H](CS)CCCS ?
result: true

query: What do you have for NC(CS)CC(C(=O)O)C(=O)O (stereo unspecified) ?
result: true

query: What do you have for COC(=O)C(O)[C@H](N)Cc1ccccc1 (stereo partly specified) ?
result: false
